Values compiled from the supplement of paper PMC7877785.

Give self-splicing fitness (ln) for every item shown.
Test: self-splicing fitness, log relative to wild type (ln ratio); higher = more splicing; Tetrahymena group I intron in knt gene, E. coli kanamycin selection, DiMSum; sequences stand for … in CUCUCU…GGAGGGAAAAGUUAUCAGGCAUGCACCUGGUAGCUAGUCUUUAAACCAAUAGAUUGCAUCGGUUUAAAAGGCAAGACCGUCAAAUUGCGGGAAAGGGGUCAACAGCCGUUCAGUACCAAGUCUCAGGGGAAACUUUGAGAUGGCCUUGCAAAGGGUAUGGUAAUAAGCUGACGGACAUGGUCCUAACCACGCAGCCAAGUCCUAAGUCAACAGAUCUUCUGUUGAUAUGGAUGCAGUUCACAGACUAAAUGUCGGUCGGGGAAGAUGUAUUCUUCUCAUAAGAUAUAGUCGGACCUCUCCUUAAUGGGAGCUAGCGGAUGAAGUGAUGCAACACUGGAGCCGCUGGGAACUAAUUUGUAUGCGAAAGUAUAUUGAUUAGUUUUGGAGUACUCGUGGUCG;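 also: selection with 25 µg/mL kanamycin versus none on LB agar overnight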
Details: 37 °C
The answer should be written as a number, with no unit following it.

Query: So what's the measured self-splicing fitness (ln) for this one? CAGGAGCAAUAUUACGACUA
Reply: -0.98

Query: So what's the measured self-splicing fitness (ln) for this one? GCCGAGCAAUAUUACGUGCU
Reply: -2.08

Query: So what's the measured self-splicing fitness (ln) for this one? UGUCAGCAAUAUUACGAAGA
Reply: -0.132

Query: So what's the measured self-splicing fitness (ln) for this one? UCUUAGCAAUAUUACGCUAG
Reply: -2.47

Query: So what's the measured self-splicing fitness (ln) for this one? UUCGAGCAAUAUUACGCACU
Reply: -1.76

Query: So what's the measured self-splicing fitness (ln) for this one? UUAGAGCAAUAUUACGGCGA
Reply: -0.0898

Query: So what's the measured self-splicing fitness (ln) for this one? UUCAAGCAAUAUUACGUCGA
Reply: -0.0975

Query: So what's the measured self-splicing fitness (ln) for this one? UGUAAGCAAUAUUACGACAG
Reply: -0.146

Query: So what's the measured self-splicing fitness (ln) for this one? CCCGAGCAAUAUUACGGUGC
Reply: -2.77

Query: So what's the measured self-splicing fitness (ln) for this one? CUAAAGCAAUAUUACGUUAG
Reply: -1.77

Query: So what's the measured self-splicing fitness (ln) for this one? UCAUAGCAAUAUUACGGCUC
Reply: -1.78

Query: So what's the measured self-splicing fitness (ln) for this one? ACUAAGCAAUAUUACGUGUG
Reply: -1.06

Query: So what's the measured self-splicing fitness (ln) for this one? AGCGAGCAAUAUUACGCGUA
Reply: -1.7

Query: So what's the measured self-splicing fitness (ln) for this one? AGAAAGCAAUAUUACGAAUU
Reply: -1.32

Query: So what's the measured self-splicing fitness (ln) for this one? AUAUAGCAAUAUUACGCUUG
Reply: -0.589

Query: So what's the measured self-splicing fitness (ln) for this one? AGGUAGCAAUAUUACGCUUA
Reply: -0.467

Query: So what's the measured self-splicing fitness (ln) for this one? UCAUAGCAAUAUUACGCAUA
Reply: -1.34

Query: So what's the measured self-splicing fitness (ln) for this one? UAACAGCAAUAUUACGAGAC
Reply: -2.78

Query: So what's the measured self-splicing fitness (ln) for this one? GCAAAGCAAUAUUACGAUUG
Reply: -1.28

Query: So what's the measured self-splicing fitness (ln) for this one? GAAAAGCAAUAUUACGACUG
Reply: -0.857

Query: So what's the measured self-splicing fitness (ln) for this one? UGAUAGCAAUAUUACGAAAU
Reply: -2.19
